Record form. Attribute: viability. Fill in for each entry.
experiment: drug combination growth inhibition, ovarian cancer – cell-based, oncology-focused library, rucaparib conditional, profiling panel (AID 1508598); details: patient-derived ovarian cancer cells, CellTiter-Glo viability, 144 h; at 5 µM; OCI-P5x cells; with rucaparib 20 µM; active compounds read low; 100% = cells with rucaparib alone
Give bare numbers, in %.

Example entries begin here.
[[record]]
compound = "Cc1ccc2nc(NC(=O)CSc3nc4c(c(=O)n3-c3ccccc3)SCC4)sc2c1"
experimental_result = 76.9

[[record]]
compound = "O=C(O)c1ccc(O)c2ncccc12"
experimental_result = 111

[[record]]
compound = "CC(C)Oc1ccc(C(=O)N[C@H](CNC(=O)CN(C)C)Cc2ccc(-c3cn4cccc([C@H](C)O)c4n3)cc2)cc1Cl"
experimental_result = 63.4

[[record]]
compound = "CC(C)(C)Cn1c(N)nc2ccc(-c3[nH]c(C(C)(C)C)nc3-c3ccc(F)cc3)nc21"
experimental_result = 90.5

[[record]]
compound = "CN(C)Cc1ccc(-c2nc3cccc4c3n2CCNC4=O)cc1"
experimental_result = 78.4


Would you mind giving viability for every compound in the list below?
1. Cc1cnc(NC(=O)Nc2cc(Br)c(C)cc2OC[C@@H]2CNCCO2)cn1
2. C=CC(=O)Nc1cc(Nc2nccc(-c3cn(C)c4ccccc34)n2)c(OC)cc1N(C)CCN(C)C
3. C#Cc1cccc(Nc2ncnc3cc(OCCOC)c(OCCO)cc23)c1
4. COc1cc2c(Oc3ccc4[nH]c(C)cc4c3F)ncnc2cc1OCCCN1CCCC1
5. Cc1cccc(Nc2nc(-c3ccncc3)cs2)c1
6. CC(C)n1nc(-c2ccc3oc(N)nc3c2)c2c(N)ncnc21

[0.466, 8.99, 68.7, 76.9, 82.2, 19.5]

Would you mind giving viability for every compound in the list below?
1. O=C(Nc1ccccc1-c1cn2c(CN3CCNCC3)csc2n1)c1cnc2ccccc2n1
2. CS(=O)(=O)N1CCc2c(-c3cnc(N)nc3)nc(N3CCOCC3)nc21
3. OCCn1cc(-c2cnc3nnn(Cc4ccc5ncccc5c4)c3n2)cn1
4. CC1COC2(CCN(c3nc(=O)c4cc(C(F)(F)F)cc([N+](=O)[O-])c4s3)CC2)O1 (stereo not given)

1. 0.727
2. 16
3. 97.4
4. 108

###

assay: RCMB18 cell growth, single agent and combined, cisplatin and BGB IC40 combos (AID 1671462); details: RCMB18 medulloblastoma cells, at 0.5 µM, active compounds read high;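 further: cells exposed to compound for four days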
Record form. Attribute: inhibition. Fill in for each entry.
Numbers only, in %.

[[record]]
sample_smiles = "CC(C)OC(=O)[C@H](C)N[P@](=O)(OC[C@H]1O[C@@H](n2ccc(=O)[nH]c2=O)[C@](C)(F)[C@@H]1O)Oc1ccccc1"
experimental_result = -12.6

[[record]]
sample_smiles = "O=C(O)[C@H](Cc1c[nH]c2ccccc12)N1C(=O)c2ccccc2C1=O"
experimental_result = -10.5

[[record]]
sample_smiles = "Nc1ccccc1NC(=O)c1ccc(CNc2nccc(-c3cccnc3)n2)cc1"
experimental_result = 56.4


Would you mind giving inhibition for every compound in the list below?
1. CS(=O)(=O)c1ccc(-c2nnc(/C=C/c3nnc(-c4ccc(C#N)cc4)o3)n2-c2ccccc2Cl)nc1
2. C=C1[C@H](CO)[C@@H](O)C[C@@H]1n1cnc2c(=O)[nH]c(N)nc21

1. 3.73
2. -7.97

Would you mind giving inhibition for every compound in the list below?
1. CN(C)Cc1c(C(=O)NCCOc2ccc(C(=O)NO)cc2)oc2ccccc12
2. COc1ccc(-n2c(SCCCN3C(=O)c4cccc5cccc(c45)C3=O)nnc2-c2ccncc2)cc1

47.1
-7.05

###

assay: drug combination growth inhibition, ovarian cancer – cell-based, oncology-focused library, rucaparib conditional, profiling panel (AID 1508598); conditions: patient-derived ovarian cancer cells, CellTiter-Glo viability, 144 h; at 0.000305 µM; OCI-P5x cells; without rucaparib; active compounds read low
The source made the active and inactive calls.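 The calls were made as follows: active = normalized viability below 100% at a tested concentration; inactive = the rest.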
Record form. Attribute: viability. Fill in for each entry.

Example entries begin here.
[[record]]
sample_smiles = "CC1(C)CNc2cc(NC(=O)c3cccnc3NCc3ccncc3)ccc21"
experimental_readout = "viability"
experimental_result = "103% (inactive)"

[[record]]
sample_smiles = "COc1cc(OC2CCN(C)CC2)ccc1Nc1ncc2c(n1)n(C1CCCC1)c(=O)n2C"
experimental_readout = "viability"
experimental_result = "112% (inactive)"


Let us examine a further case.
viability for `CCC[C@H](NC(=O)/C(C#N)=C/c1cccc(Br)n1)c1ccccc1` ?
113% (inactive)

###

assay: viability loss in pontine glioma line – cell-based, SU-DIPG-IV, MIPE4.0, CellTiter-Glo, qHTS, dose response (AID 1347063); details: CellTiter-Glo ATP luminescence;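 further: compound exposure lasted 48 hours before the viability readout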
Records with an inconclusive call do not appear. Activity calls are given as the source filed them. The limit is not given here; nearly all actives have AC50 up to about 30 µM.
The reply should name one outcome from 1 for active, 0 for inactive

Examples from the recorded data:
[[record]]
compound = "Cn1c2ccccc2c2c3c(c4c5ccccc5n(CCC#N)c4c21)CNC3=O"
assigned_label = 1

[[record]]
compound = "Cc1c(C)n(Cc2ccc(-c3ccccc3C(=O)O)cc2)c2ccc(C(=O)N[C@@H](C)c3ccc([N+](=O)[O-])cc3)cc12"
assigned_label = 1

[[record]]
compound = "COc1cc2ncnc(Nc3cc(Br)c(O)c(Br)c3)c2cc1OC"
assigned_label = 1

[[record]]
compound = "CN[C@@H]1C[C@H]2O[C@@](C)([C@@H]1OC)n1c3ccccc3c3c4c(c5c6ccccc6n2c5c31)C(=O)N[C@H]4O"
assigned_label = 1

[[record]]
compound = "CN[C@@H]1[C@@H](O)[C@@H](O[C@@H]2[C@@H](O)[C@H](O[C@H]3O[C@H](CN)[C@@H](O)[C@H](O)[C@H]3O)[C@@H](N)C[C@H]2NC(=O)[C@@H](O)CN)OC[C@]1(C)O"
assigned_label = 0


Below: the item to evaluate.
So what was the verdict on CC[C@]1(O)C[C@@H]2CN(CCc3c([nH]c4ccccc34)[C@@](C(=O)OC)(c3cc4c(cc3OC)N(C=O)[C@@H]3C45CCN4CC=C[C@](CC)([C@H]45)[C@@H](OC(C)=O)[C@]3(O)C(=O)OC)C2)C1 (stereo partly specified) in this test?
0

###

assay: viability loss in pontine glioma line – cell-based, JHH-DIPG-1, MIPE4.0, CellTiter-Glo, qHTS, dose response (AID 1347062); conditions: JHH-DIPG-1 viability, CellTiter-Glo ATP luminescence;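 on AC50: cells exposed to compound for two days before readout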
Inconclusive results are not listed. Activity calls are given as the source filed them. The limit is not given here; nearly all actives have AC50 up to about 27 µM.
EXPERIMENTAL READOUT: AC50

Example entries begin here.
[[record]]
compound = "CC(=O)N(C)C1(c2ccccc2)CCN(CCC[C@]2(c3ccc(Cl)c(Cl)c3)CCCN(C(=O)c3ccccc3)C2)CC1"
experimental_readout = "AC50"
experimental_result = "29.6 µM (active)"

[[record]]
compound = "CCCCOc1ccc(C(=O)Nc2ccc(F)cc2F)cc1"
experimental_readout = "AC50"
experimental_result = "inactive"

[[record]]
compound = "CN(C)c1ccc(C2Nc3ccc4ccccc4c3C3=C2C(=O)CC(C)(C)C3)cc1Br (stereo not drawn)"
experimental_readout = "AC50"
experimental_result = "inactive"

[[record]]
compound = "CCN(CC)CCCCNc1ncc2cc(-c3cc(OC)cc(OC)c3)c(NC(=O)NC(C)(C)C)nc2n1"
experimental_readout = "AC50"
experimental_result = "26.4 µM (active)"

[[record]]
compound = "C[Se]CCC(N)C(=O)O (stereo not drawn)"
experimental_readout = "AC50"
experimental_result = "inactive"

[[record]]
compound = "O=c1[nH]c(=O)n([C@H]2C[C@H](O)[C@@H](CO)O2)cc1/C=C/Br"
experimental_readout = "AC50"
experimental_result = "inactive"


Would you mind giving AC50 for every compound in the list below?
1. CC(C)(C)NC(=O)Nc1cccc(Nc2ncc(F)c(NC(C)(C)CO)n2)c1
2. COc1ccc(-n2c(C)c([N+](=O)[O-])c3ccc(O)cc32)cc1

1. inactive
2. inactive

###

experiment: drug combination growth inhibition, ovarian cancer – cell-based, oncology-focused library, rucaparib conditional, profiling panel (AID 1508598); details: patient-derived ovarian cancer cells, CellTiter-Glo viability, 144 h; at 5 µM; OCI-C5x cells; with rucaparib 10 µM; active compounds read low; 100% = cells with rucaparib alone
EXPERIMENTAL READOUT: viability (%)
Answers are plain numbers, in %.

Example entries begin here.
[[record]]
molecule = "Cc1nc2c(-c3cnc(N)nc3)nc(N3CCOCC3)nc2n1C(C)C"
unit_info = "%"
experimental_result = 34.3

[[record]]
molecule = "Cc1cccc(-c2nn3c(c2-c2ccnc4ccc(C(N)=O)cc24)CCC3)n1"
unit_info = "%"
experimental_result = 131

[[record]]
molecule = "Nc1cccc2c1C(=O)N(C1CCC(=O)NC1=O)C2=O (centres undefined)"
unit_info = "%"
experimental_result = 105

[[record]]
molecule = "COc1ccc2cc(-c3nc(-c4ccc(S(C)=O)cc4)[nH]c3-c3ccncc3)ccc2c1 (centres undefined)"
unit_info = "%"
experimental_result = 110

[[record]]
molecule = "O=S(=O)(O)CCSSCCS(=O)(=O)O"
unit_info = "%"
experimental_result = 116

[[record]]
molecule = "O=C(CCCCCCC(=O)Nc1ccc([C@H]2O[C@@H](CSc3nc(-c4ccccc4)c(-c4ccccc4)o3)C[C@@H](c3ccc(CO)cc3)O2)cc1)NO"
unit_info = "%"
experimental_result = 128


Would you mind giving viability for every molecule in the list below?
1. CCc1cc(Nc2nccc(-c3c(-c4ccc(OC)c(C(=O)Nc5c(F)cccc5F)c4)nc4ccccn34)n2)c(OC)cc1N1CCC(N2CCN(S(C)(=O)=O)CC2)CC1
2. C=CC(=O)Nc1cccc(Oc2nc(Nc3ccc(N4CCN(C)CC4)cc3OC)ncc2Cl)c1
3. CCn1c(-c2nonc2N)nc2c(C#CC(C)(C)O)ncc(OC[C@H]3CCCNC3)c21

[176, 91.6, 94.5]
